Measured values drawn from patent US5744161A for this set.

Experiment: Margin of bioenhancing dose of piperine versus LD50 in rodents
Parameters: species or system mice and rats
Details: in vivo; maximum approx. 15 mg/person/day, no more than 20 mg/day; read-out: bioenhancing dose less than LD50 dose
measure: selectivity ratio

Lookup: Name the recorded selectivity ratio for O=C(/C=C/C=C/c1ccc2c(c1)OCO2)N1CCCCC1 [piperine] .
Found: ≤ 40000
